target: EPHB1 (UniProt P54762); experiment: phosphorylation enrichment, bacterial display (enrichment ratio); higher = better substrate or ligand; peptides without Tyr show the background;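 note: 11-residue human phosphosite peptides and single-mutation variants displayed on the E. coli surface, counted by deep sequencing, each peptide's frequency after selection divided by its frequency in the unselected input library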;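 note: frequency after pTyr selection over input frequency; kinase dosed for 20-30% of maximal phosphorylation in three min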
Sequence (P54762 whole entry, looked up): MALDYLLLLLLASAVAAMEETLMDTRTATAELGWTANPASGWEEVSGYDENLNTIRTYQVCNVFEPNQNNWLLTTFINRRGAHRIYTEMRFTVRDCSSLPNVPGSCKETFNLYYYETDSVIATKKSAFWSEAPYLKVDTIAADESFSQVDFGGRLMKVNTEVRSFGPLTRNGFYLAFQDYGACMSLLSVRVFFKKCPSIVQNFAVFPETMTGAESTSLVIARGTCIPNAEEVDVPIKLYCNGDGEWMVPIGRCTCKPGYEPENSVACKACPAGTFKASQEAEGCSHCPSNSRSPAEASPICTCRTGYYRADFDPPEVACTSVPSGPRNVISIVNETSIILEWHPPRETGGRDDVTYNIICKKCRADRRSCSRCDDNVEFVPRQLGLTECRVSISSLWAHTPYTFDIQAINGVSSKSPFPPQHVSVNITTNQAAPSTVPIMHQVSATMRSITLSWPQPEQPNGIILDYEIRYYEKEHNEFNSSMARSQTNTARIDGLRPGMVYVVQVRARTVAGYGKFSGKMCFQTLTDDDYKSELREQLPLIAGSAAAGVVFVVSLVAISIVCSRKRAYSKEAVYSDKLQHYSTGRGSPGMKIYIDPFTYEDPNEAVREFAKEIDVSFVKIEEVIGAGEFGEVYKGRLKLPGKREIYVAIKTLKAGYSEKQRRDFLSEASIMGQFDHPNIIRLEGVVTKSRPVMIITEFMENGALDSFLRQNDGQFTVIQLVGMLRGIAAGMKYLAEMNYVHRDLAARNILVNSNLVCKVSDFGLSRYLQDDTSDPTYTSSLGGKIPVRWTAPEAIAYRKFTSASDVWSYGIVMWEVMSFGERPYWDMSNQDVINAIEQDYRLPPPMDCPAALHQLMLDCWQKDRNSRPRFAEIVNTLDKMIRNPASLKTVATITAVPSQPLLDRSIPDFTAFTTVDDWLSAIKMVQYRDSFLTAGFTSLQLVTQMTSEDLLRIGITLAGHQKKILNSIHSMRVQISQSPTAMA
Rule: 1.0 for phosphorylation enrichment not less than 0.4, 0.0 for anything less.

Residues: TKAEKYVNKPK [PLCG1_Y991_A995P]
Cat: 0.0
--
Residues: RLQEGYDHSYY [ESD_Y258]
Cat: 1.0
--
Residues: EGNERYEGFCV [GRIA3_Y451_YF]
Cat: 1.0
--
Residues: ATHSGYRLNDF [CLDN14_Y233_YF]
Cat: 1.0
--
Residues: GHLFANDWISI [BEST1_Y227_Y227N_YF]
Cat: 1.0
--
Residues: PVFQVYPLLNC [GATA1_Y78]
Cat: 1.0
--
Residues: CEETFYTMKVN [MASP2_Y401]
Cat: 1.0
--
Residues: YSTPPYLLEAA [BRIP1_Y921_S919P]
Cat: 1.0
--
Residues: WGLRSYFETSK [MAGED2_Y448_YF]
Cat: 1.0
--
Residues: KFMVGYEMIAQ [GALT_Y339_L342I]
Cat: 1.0
--
Residues: RRAKGYPIFLF [ITGB2_Y125_D128Y_YF]
Cat: 0.0
--
Residues: EYQLPYYNTVP [BMPR1A_Y457_M460T]
Cat: 1.0
--
Residues: TENAGYFFQVS
Cat: 1.0
--
Residues: MYVKSYTIHYS [F5_Y2153]
Cat: 1.0
--
Residues: QRCFVYFFSFL [PTEN_Y176_R173C_YF]
Cat: 1.0
--
Residues: FVSAAYVKKLD [SPTAN1_Y1020_P1017S]
Cat: 1.0
--
Residues: ADKSAYLMGPN [MYH7_Y386_L390P]
Cat: 0.0
--
Residues: IGSHAYGDQFR [IDH1_Y135_R132S_YF]
Cat: 0.0
--
Residues: WRGMPYGGRGD [TGM1_Y312_R307W]
Cat: 0.0
--
Residues: AATTAYSKPKR [MAP3K7_Y405]
Cat: 0.0
--
Residues: RLSVDYGKKSK [TUBA3E_Y161_S162G]
Cat: 1.0
--
Residues: IRTIDYRFTVC [IDS_Y497_W502C_YF]
Cat: 1.0
--
Residues: RESYKYLPSSL [CXXC1_Y218_F219L]
Cat: 1.0
--
Residues: KKYPDYIQIAR [SGMS2_Y59_M64R]
Cat: 1.0
--
Residues: PANTVYSTVEI [SLAMF7_Y304]
Cat: 1.0
--
Residues: DFDHSYFFIAT [ESD_Y262_G257D_YF]
Cat: 1.0
